The origin of these recorded values is ChEMBL document CHEMBL1126033.

# Test system: Mustela putorius furo
# assay.comment: Average area under curve value dosed at 0.3 mg/kg, iv in ferrets.
# measurement.conditions: ferret, in vivo
reported.property: Average AUC (ng·h/mL)

Please review the following examples before continuing.
CCCC[C@H](O[C@@H](Cc1ccccc1)C(=O)N1CCC(OCOC)CC1)C(=O)N[C@@H](CC1CCCCC1)[C@@H](O)C[C@H](C(=O)NCCN1CCOCC1)C(C)C    472
CCCC[C@H](O[C@@H](Cc1ccccc1)C(=O)N1CCC(OCOC)CC1)C(=O)N[C@@H](CC1CCCCC1)[C@@H](O)C[C@H](C(=O)NCCCN1CCOCC1)C(C)C    588
CCCC[C@H](O[C@@H](Cc1ccccc1)C(=O)N1CCC(OCOC)CC1)C(=O)N[C@@H](CC1CCCCC1)[C@@H](O)C[C@H](C(=O)NCCCn1ccnc1)C(C)C    410
CCCC[C@H](O[C@@H](Cc1ccccc1)C(=O)N1CCC(OCOC)CC1)C(=O)N[C@@H](CC1CCCCC1)[C@@H](O)C[C@H](NC(=O)OCCN1CCOCC1)C(C)C    258

I: CCCC[C@H](N[C@@H](Cc1ccccc1)C(=O)N1CCC(OCOC)CC1)C(=O)N[C@@H](CC1CCCCC1)[C@@H](O)C[C@H](C(=O)NCCCN1CCOCC1)C(C)C
II: CCCC[C@H](O[C@@H](Cc1ccccc1)C(=O)N1CCC(OCOC)CC1)C(=O)N[C@@H](CC1CCCCC1)[C@@H](O)C[C@H](NC(=O)OCCN(C)C)C(C)C
Return label of the item with the larger Average AUC. Candidates: I , II . In your reply, give the label of the chosen option.
I
(I: 682 ng·h/mL, II: 232 ng·h/mL)

----------
# tested.system: Renin (Homo sapiens, UniProt P00797)
# Sequence (P00797 whole entry): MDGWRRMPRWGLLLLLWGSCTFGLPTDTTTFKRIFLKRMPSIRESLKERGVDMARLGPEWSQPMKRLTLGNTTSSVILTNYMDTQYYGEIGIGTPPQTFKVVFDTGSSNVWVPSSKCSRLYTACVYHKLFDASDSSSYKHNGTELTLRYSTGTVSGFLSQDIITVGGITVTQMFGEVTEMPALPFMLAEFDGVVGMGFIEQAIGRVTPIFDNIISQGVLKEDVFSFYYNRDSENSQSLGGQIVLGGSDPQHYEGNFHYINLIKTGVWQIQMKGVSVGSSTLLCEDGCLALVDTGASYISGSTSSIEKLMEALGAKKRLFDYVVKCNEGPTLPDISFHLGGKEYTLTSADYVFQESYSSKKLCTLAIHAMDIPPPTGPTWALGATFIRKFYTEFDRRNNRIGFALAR
# assay.comment: In vitro activity against human renin (pH 6.0)
reported.property: IC50 (nM)

Please review the following examples before continuing.
CC(C)[C@H](C[C@H](O)[C@H](CC1CCCCC1)NC(=O)[C@H](Cc1c[nH]cn1)NC(=O)[C@H](Cc1ccccc1)NC(=O)OC(C)(C)C)NS(=O)(=O)C(C)C    67
CCCC[C@H](O[C@@H](Cc1ccccc1)C(=O)N1CCC(OCOC)CC1)C(=O)N[C@@H](CC1CCCCC1)[C@@H](O)C[C@H](C(=O)NCCC[N+]1([O-])CCOCC1)C(C)C    1.3
CC(C)[C@H](C[C@H](O)[C@H](CC1CCCCC1)NC(=O)[C@H](Cc1c[nH]cn1)NC(=O)[C@H](Cc1ccccc1)NC(=O)OC(C)(C)C)NC(=O)OCc1ccccc1    11
CCCC[C@H](O[C@@H](Cc1ccccc1)C(=O)N1CCC(OCOC)CC1)C(=O)N[C@@H](CC1CCCCC1)[C@@H](O)C[C@H](NC(=O)OCc1ccccc1)C(C)C    2.2
CCCOC(=O)N[C@@H](C[C@H](O)[C@H](CC1CCCCC1)NC(=O)[C@H](Cc1cnc[nH]1)NC(=O)[C@H](Cc1ccccc1)NC(=O)OC(C)(C)C)C(C)C    1.7
CC(C)[C@H](C[C@H](O)[C@H](CC1CCCCC1)NC(=O)[C@H](Cc1cnc[nH]1)NC(=O)[C@H](Cc1ccccc1)NC(=O)OC(C)(C)C)NC(=O)OCCCN(C)C    2.8
CCCC[C@H](O[C@@H](Cc1ccccc1)C(=O)N1CCC(OCOC)CC1)C(=O)N[C@@H](CC1CCCCC1)[C@@H](O)C[C@H](C(=O)NCCc1ccccn1)C(C)C    1
CC(C)[C@H](C[C@H](O)[C@H](CC1CCCCC1)NC(=O)[C@H](Cc1c[nH]cn1)NC(=O)[C@H](Cc1ccccc1)NC(=O)OC(C)(C)C)NS(C)(=O)=O    28
CCCC[C@H](O[C@@H](Cc1ccccc1)C(=O)N1CCC(OCOC)CC1)C(=O)N[C@@H](CC1CCCCC1)[C@@H](O)C[C@H](NC(=O)OCCCN(C)C)C(C)C    2.4
CCCC[C@H](N[C@@H](Cc1ccccc1)C(=O)N1CCC(OCOC)CC1)C(=O)N[C@@H](CC1CCCCC1)[C@@H](O)C[C@H](C(=O)NCCCn1ccnc1)C(C)C    2

a: CCCC[C@H](N[C@@H](Cc1ccccc1)C(=O)N1CCC(OCOC)CC1)C(=O)N[C@@H](CC1CCCCC1)[C@@H](O)C[C@H](NC(=O)OCCN(C)C)C(C)C
b: CCCC[C@H](O[C@@H](Cc1ccccc1)C(=O)N1CCC(OCOC)CC1)C(=O)N[C@@H](CC1CCCCC1)[C@@H](O)C[C@H](C(=O)NCCN1CCOCC1)C(C)C
Identify the item whose IC50 is the smaller number: a or b In your reply, give the label of the chosen option.
b
(b: 1 nM, a: 1.5 nM)

A: CCCC[C@H](N[C@@H](Cc1ccccc1)C(=O)N1CCC(OCOC)CC1)C(=O)N[C@@H](CC1CCCCC1)[C@@H](O)C[C@H](C(=O)NCCCN(C)C)C(C)C
B: CCCC[C@H](O[C@@H](Cc1ccccc1)C(=O)N1CCC(OCOC)CC1)C(=O)N[C@@H](CC1CCCCC1)[C@@H](O)C[C@H](NC(=O)OCCC(C)C)C(C)C
Return label of the item with the larger IC50. Candidates: A , B . In your reply, give the label of the chosen option.
B

1: CCCC[C@H](O[C@@H](Cc1ccccc1)C(=O)N1CCC(OCOC)CC1)C(=O)N[C@@H](CC1CCCCC1)[C@@H](O)C[C@H](NS(C)(=O)=O)C(C)C
2: CCCC[C@H](O[C@@H](Cc1ccccc1)C(=O)N1CCC(OCOC)CC1)C(=O)N[C@@H](CC1CCCCC1)[C@@H](O)C[C@H](C(=O)NCCN(C)C)C(C)C
3: CCCC[C@H](O[C@@H](Cc1ccccc1)C(=O)N1CCC(OCOC)CC1)C(=O)N[C@@H](CC1CCCCC1)[C@@H](O)C[C@H](NC(=O)OCCC)C(C)C
# rank_down: sort by IC50, max first Provide the labels, sequenced as the question asks.
1, 2, 3

P: CCCCC(=O)N[C@@H](C[C@H](O)[C@H](CC1CCCCC1)NC(=O)[C@H](Cc1c[nH]cn1)NC(=O)[C@H](Cc1ccccc1)NC(=O)OC(C)(C)C)C(C)C
Q: CCCNC(=O)N[C@@H](C[C@H](O)[C@H](CC1CCCCC1)NC(=O)[C@H](Cc1c[nH]cn1)NC(=O)[C@H](Cc1ccccc1)NC(=O)OC(C)(C)C)C(C)C
Return label of the item with the larger IC50. Candidates: P , Q . In your reply, give the label of the chosen option.
P

----------
# assay.comment: Partition coefficient (logD7.4)
# measurement.conditions: octanol/water, pH 7.4
Some molecules, each annotated with its measured logD.

CCCCNC(=O)[C@@H](C[C@H](O)[C@H](CC1CCCCC1)NC(=O)[C@H](CCCC)N[C@@H](Cc1ccccc1)C(=O)N1CCC(OCOC)CC1)C(C)C    > 4.5

State its logD for this molecule: "CCCC[C@H](O[C@@H](Cc1ccccc1)C(=O)N1CCC(OCOC)CC1)C(=O)N[C@@H](CC1CCCCC1)[C@@H](O)C[C@H](C(=O)NCCc1ccccn1)C(C)C"
> 5

State its logD for this molecule: "CCCC[C@H](O[C@@H](Cc1ccccc1)C(=O)N1CCC(OCOC)CC1)C(=O)N[C@@H](CC1CCCCC1)[C@@H](O)C[C@H](C(=O)NCCN1CCOCC1)C(C)C"
> 5

State its logD for this molecule: "CCCC[C@H](O[C@@H](Cc1ccccc1)C(=O)N1CCC(OCOC)CC1)C(=O)N[C@@H](CC1CCCCC1)[C@@H](O)C[C@H](C(=O)N(C)CCN(C)C)C(C)C"
> 5
